# subject of test: Protein RecA (Mycobacterium tuberculosis)
# procedure details: Fluorescence Cell-Free Homogeneous Dose Retest to Identify Inhibitors of RecA-Intein Splicing Activity. [Related pubchem assays (depositor defined):AID2097, AID2223, AID489010, AID492950]
# Format: functional
The source made the active and inactive calls. Rule as the data show it: actives have a measured EC50 and inactives only a lower limit.
Your answer must be one of the following: Y (active), N (inactive)

Data request: How was `Cc1ccccc1-c1cc2c(nn1)-c1ccccc1C2=O` classified in this test?
Data returned: Y

Data request: Same again, this time with `Cc1n[nH]c(O)c1C(c1ccc(Br)cc1)c1c(C)n[nH]c1O`
Data returned: Y

Data request: Same lookup for `Cc1ccc(C(=O)N/N=C/c2ccc(-c3ccccc3[N+](=O)[O-])o2)cn1` , please.
Data returned: Y

Data request: Input `COc1ccc(N2C(=O)C(Cl)=C(N3CCN(Cc4ccccc4)CC3)C2=O)cc1`
Data returned: Y

Data request: Now consider `COc1ccc(/C=C/C(=O)c2ccc(O)cc2)cc1COc1ccc(F)cc1` and answer again.
Data returned: N

Data request: // next record `N#Cc1ccc(-n2c(-c3ccccc3)nnc2-c2ccccc2)cc1C#N`
Data returned: Y

Data request: What do you have for `Cc1c(C(=O)NN)nn(-c2ccc(Cl)cc2)c(=O)c1C#N` ?
Data returned: Y

Data request: Consider next the compound `CC(C)(C)c1cc(C(=O)CCN2CCOCC2)cc(C(C)(C)C)c1O` in the same way.
Data returned: Y

Data request: And `CC1(C)Nc2ccc(O)cc2-c2c1ssc2=S` ?
Data returned: Y

Data request: Please give the result for `COc1ccc(Nc2oc(COc3ccccc3F)nc2C#N)cc1` too.
Data returned: Y

Data request: Record: `COc1cc(C(c2c(C)n[nH]c2O)c2c(C)n[nH]c2O)ccc1OC(C)C`
Data returned: Y

Data request: Now the compound `COc1ccccc1Nc1cc2cc(Br)ccc2c(=O)[nH]1`
Data returned: Y

Data request: Lookup `C/C(CC(=O)Nc1ccc(F)cc1)=N\NC(=O)COc1ccccc1`
Data returned: Y

Data request: Lookup OC(CNCCC1C=Nc2ccccc21)Cn1c2ccc(Cl)cc2c2cc(Cl)ccc21 (stereo not given)
Data returned: Y

Data request: Another compound to check: `Oc1ccc(/N=C/c2sc3ccccc3c2Cl)cc1`
Data returned: N

Data request: Then what about the compound `CCOC(=O)c1ccc(NC2=CC(=O)C(=O)c3ccccc32)cc1` ?
Data returned: Y

Data request: Let us now turn to `O=c1oc(-c2ccccc2Cl)nc2ccsc12`
Data returned: Y

Data request: Also, `CS/C(=C\[N+](=O)[O-])Nc1ccc(Cl)cc1` please.
Data returned: Y

Data request: # repeat for `Cc1ccc(Sc2ccc(NC(=O)CCl)cc2)c(C)c1`
Data returned: Y

Data request: Can you check `O=[N+]([O-])c1c(Nc2ccc(O)cc2)cc(Cl)c2nonc12` next?
Data returned: Y

Data request: Continue with O=C(NC1CCCCC1)C(c1cccnc1)N(C(=O)CCl)c1ccc(F)cc1 (stereo not given)
Data returned: Y

Data request: Another compound: `CCCCCCCCCCCCCCCC[N+](C)(C)C`
Data returned: Y

Data request: And the next one, `Cc1ccc(/C=C2\Sc3ccccc3C2=O)s1` ?
Data returned: Y

Data request: Another: `O=C(CCCN1C(=O)S/C(=C\C=C\c2ccccc2)C1=O)Nc1ccc(C(=O)O)cc1`
Data returned: Y

Data request: Repeat with `COc1ccc(O)c(C(c2c(C)[nH][nH]c2=O)c2c(C)[nH][nH]c2=O)c1`
Data returned: Y

Cited source for all entries: ChEMBL document CHEMBL1201862
